So I've got a bunch of variants here, and I need their normalized RNA/DNA level with ligand (log10) values.
B1: library; a variant is named by its letters at N, in order (parent)
chain: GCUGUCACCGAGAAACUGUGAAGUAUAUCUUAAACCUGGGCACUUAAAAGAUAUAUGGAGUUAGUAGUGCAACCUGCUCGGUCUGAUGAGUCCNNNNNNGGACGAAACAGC

Variants of: B1
EXPERIMENT_SUMMARY: normalized RNA/DNA level with ligand (relative to sTRSVctl = 100) (log10 (% of sTRSVctl)); HEK293T; ligand: cyclic di-GMP (c-di-GMP-II aptamer); ligand concentration (+) RNA-Seq: 1 mM; higher = less ribozyme self-cleavage, higher mRNA level
CONDITION_INFO: reporter: mCherry (pCS4076), ligand present: yes
Give bare numbers.

[[record]]
sequence_text = "GCUGUCACCGAGAAACUGUGAAGUAUAUCUUAAACCUGGGCACUUAAAAGAUAUAUGGAGUUAGUAGUGCAACCUGCUCGGUCUGAUGAGUCCAGCGGCGGACGAAACAGC [AGCGGC]"
assay_value = 1.87

[[record]]
sequence_text = "GCUGUCACCGAGAAACUGUGAAGUAUAUCUUAAACCUGGGCACUUAAAAGAUAUAUGGAGUUAGUAGUGCAACCUGCUCGGUCUGAUGAGUCCUCAAUCGGACGAAACAGC [UCAAUC]"
assay_value = 1.8

[[record]]
sequence_text = "GCUGUCACCGAGAAACUGUGAAGUAUAUCUUAAACCUGGGCACUUAAAAGAUAUAUGGAGUUAGUAGUGCAACCUGCUCGGUCUGAUGAGUCCGACGAGGGACGAAACAGC [GACGAG]"
assay_value = 1.71

[[record]]
sequence_text = "GCUGUCACCGAGAAACUGUGAAGUAUAUCUUAAACCUGGGCACUUAAAAGAUAUAUGGAGUUAGUAGUGCAACCUGCUCGGUCUGAUGAGUCCUGAAACGGACGAAACAGC [UGAAAC]"
assay_value = 1.84


Then there is this variant:
So what's the measured normalized RNA/DNA level with ligand (log10) for this one? GCUGUCACCGAGAAACUGUGAAGUAUAUCUUAAACCUGGGCACUUAAAAGAUAUAUGGAGUUAGUAGUGCAACCUGCUCGGUCUGAUGAGUCCGCGUUUGGACGAAACAGC [GCGUUU]
1.77

Taken from the supplement of paper PMC6757056.
